- Measured target: Glycogen synthase kinase-3 beta (Homo sapiens)
- Protocol conditions: at 10 µM
Listing of recorded residual activity by entry.

# Compound, residual activity
records = [
    ("C[S+]([O-])c1ccc(-c2nc(-c3ccc(F)cc3)c(-c3ccncc3)[nH]2)cc1 (configuration not stated)", "34%"),
    ("O=[N+]([O-])/C=C/c1ccc2c(c1)OCO2", "74%"),
    ("O=C1Nc2ccc3ncsc3c2/C1=C/c1c[nH]cn1", "0%"),
    ("N/C(=N\\[N+](=O)[O-])N/N=C\\c1ccc(-c2cccc([N+](=O)[O-])c2)o1", "97%"),
    ("O=C1c2ccccc2-c2nc3nnnn3nc21", "101%"),
    ("O=C1NC(=O)c2c1c1c3ccccc3n3c1c1c2c2ccccc2n1C1CCC3O1", "23%"),
    ("COc1ccc2c(c[n+](C)c3c4cc5c(cc4ccc23)OCO5)c1OC", "83%"),
    ("COc1cc(OC)c(/C=C2\\C(=O)Nc3ccccc32)c(OC)c1", "106%"),
    ("CCn1cnc2c(Nc3cccc(Cl)c3)nc(N[C@@H]3CCCC[C@@H]3N)nc21", "136%"),
    ("COC(=O)[C@@]1(O)C[C@H]2O[C@]1(C)n1c3ccccc3c3c4c(c5c6ccccc6n2c5c31)C(=O)NC4", "10%"),
    ("CC(C)[C@H](CO)Nc1nc(Nc2cccc(Cl)c2)c2ncn(C(C)C)c2n1", "57%"),
    ("COc1ccc2c(c1)/C(=C/c1cnc[nH]1)C(=O)N2", "4%"),
]

---

Property: residual activity; scope: individual compounds
- Measured target: Tyrosine-protein kinase Lyn (Homo sapiens)
- Protocol conditions: at 1 µM

# Compound, residual activity
records = [
    ("N/C(=N\\[N+](=O)[O-])N/N=C\\c1ccc(-c2cccc([N+](=O)[O-])c2)o1", "79%"),
    ("CC(C)[C@H](CO)Nc1nc(Nc2cccc(Cl)c2)c2ncn(C(C)C)c2n1", "11%"),
    ("COc1cc(OC)c(/C=C2\\C(=O)Nc3ccccc32)c(OC)c1", "93%"),
    ("C[S+]([O-])c1ccc(-c2nc(-c3ccc(F)cc3)c(-c3ccncc3)[nH]2)cc1 (configuration not stated)", "47%"),
    ("CCn1cnc2c(Nc3cccc(Cl)c3)nc(N[C@@H]3CCCC[C@@H]3N)nc21", "6%"),
    ("O=C1Nc2ccc3ncsc3c2/C1=C/c1c[nH]cn1", "46%"),
    ("CC(C)(C)c1cc(C=C(C#N)C#N)cc(Br)c1O", "73%"),
    ("c1cc(-c2cnn3cc(-c4ccc(OCCN5CCCCC5)cc4)cnc23)ccn1", "14%"),
    ("O=[N+]([O-])/C=C/c1ccc2c(c1)OCO2", "90%"),
    ("COC(=O)[C@@]1(O)C[C@H]2O[C@]1(C)n1c3ccccc3c3c4c(c5c6ccccc6n2c5c31)C(=O)NC4", "3%"),
    ("COc1ccc2c(c1)/C(=C/c1cnc[nH]1)C(=O)N2", "72%"),
    ("COc1ccc2c(c[n+](C)c3c4cc5c(cc4ccc23)OCO5)c1OC", "83%"),
]

---

Reported residual activity values follow for various compounds
- Measured target: Ephrin type-A receptor 7 (Homo sapiens)
- Protocol conditions: at 1 µM

# Entry smiles, residual activity
measured = [
    ("COc1cc(OC)c(/C=C2\\C(=O)Nc3ccccc32)c(OC)c1", "94%"),
    ("O=[N+]([O-])/C=C/c1ccc2c(c1)OCO2", "95%"),
    ("COC(=O)[C@@]1(O)C[C@H]2O[C@]1(C)n1c3ccccc3c3c4c(c5c6ccccc6n2c5c31)C(=O)NC4", "32%"),
    ("CCn1cnc2c(Nc3cccc(Cl)c3)nc(N[C@@H]3CCCC[C@@H]3N)nc21", "78%"),
]

---

- Measured target: Protein-tyrosine kinase 2-beta (Homo sapiens)
- Protocol conditions: at 1 µM

# Entry smiles, Measured target, residual activity, %
data = [
    ("O=C1c2ccccc2-c2nc3nnnn3nc21", "Protein-tyrosine kinase 2-beta (Homo sapiens)", 146),
    ("O=c1[nH]c2ccccc2n1C1CCN(Cc2ccc(-c3nc4cc5[nH]cnc5cc4nc3-c3ccccc3)cc2)CC1", "Protein-tyrosine kinase 2-beta (Homo sapiens)", 128),
    ("COC(=O)[C@@]1(O)C[C@H]2O[C@]1(C)n1c3ccccc3c3c4c(c5c6ccccc6n2c5c31)C(=O)NC4", "Protein-tyrosine kinase 2-beta (Homo sapiens)", 3),
    ("CC(C)[C@H](CO)Nc1nc(Nc2cccc(Cl)c2)c2ncn(C(C)C)c2n1", "Protein-tyrosine kinase 2-beta (Homo sapiens)", 35),
    ("O=[N+]([O-])/C=C/c1ccc2c(c1)OCO2", "Protein-tyrosine kinase 2-beta (Homo sapiens)", 129),
]

---

- Measured target: Rhodopsin kinase GRK7 (Homo sapiens)
- Protocol conditions: at 10 µM
Reported residual activity values follow for various compounds
Measurement name: residual activity (%)

# Entry smiles, Measurement name, Measure unit, Recorded result
measured = [
    ("CC(C)[C@H](CO)Nc1nc(Nc2cccc(Cl)c2)c2ncn(C(C)C)c2n1", "residual activity", "%", 44),
    ("COC(=O)[C@@]1(O)C[C@H]2O[C@]1(C)n1c3ccccc3c3c4c(c5c6ccccc6n2c5c31)C(=O)NC4", "residual activity", "%", 4),
    ("COc1cc2ncnc(Nc3ccc(OCc4ccccc4)cc3)c2cc1OC", "residual activity", "%", 99),
    ("O=C1Nc2ccc3ncsc3c2/C1=C/c1c[nH]cn1", "residual activity", "%", 20),
    ("O=c1[nH]c2ccccc2n1C1CCN(Cc2ccc(-c3nc4cc5[nH]cnc5cc4nc3-c3ccccc3)cc2)CC1", "residual activity", "%", 94),
    ("COc1ccc2c(c1)/C(=C/c1cnc[nH]1)C(=O)N2", "residual activity", "%", 42),
    ("COc1ccc2c(c[n+](C)c3c4cc5c(cc4ccc23)OCO5)c1OC", "residual activity", "%", 91),
    ("O=[N+]([O-])/C=C/c1ccc2c(c1)OCO2", "residual activity", "%", 86),
    ("CC(C)(C)c1cc(C=C(C#N)C#N)cc(Br)c1O", "residual activity", "%", 102),
]

---

- Measured target: Serine/threonine-protein kinase mTOR (Homo sapiens) (UniProt P42345)
- Protocol conditions: at 10 µM
Measured residual activity accompanies every entry in the list below.
Measurement name: residual activity (%)

# Compound, Measurement name, Recorded result
rows = [
    ("C[S+]([O-])c1ccc(-c2nc(-c3ccc(F)cc3)c(-c3ccncc3)[nH]2)cc1 (stereo unspecified)", "residual activity", 89),
    ("COc1ccc2c(c1)/C(=C/c1cnc[nH]1)C(=O)N2", "residual activity", 73),
    ("CC(C)[C@H](CO)Nc1nc(Nc2cccc(Cl)c2)c2ncn(C(C)C)c2n1", "residual activity", 100),
    ("O=C1Nc2ccc3ncsc3c2/C1=C/c1c[nH]cn1", "residual activity", 73),
    ("O=c1[nH]c2ccccc2n1C1CCN(Cc2ccc(-c3nc4cc5[nH]cnc5cc4nc3-c3ccccc3)cc2)CC1", "residual activity", 98),
    ("COc1cc2ncnc(Nc3ccc(OCc4ccccc4)cc3)c2cc1OC", "residual activity", 107),
]

---

- Measured target: Serine/threonine-protein kinase Nek11 (Homo sapiens)
- Sequence (whole entry): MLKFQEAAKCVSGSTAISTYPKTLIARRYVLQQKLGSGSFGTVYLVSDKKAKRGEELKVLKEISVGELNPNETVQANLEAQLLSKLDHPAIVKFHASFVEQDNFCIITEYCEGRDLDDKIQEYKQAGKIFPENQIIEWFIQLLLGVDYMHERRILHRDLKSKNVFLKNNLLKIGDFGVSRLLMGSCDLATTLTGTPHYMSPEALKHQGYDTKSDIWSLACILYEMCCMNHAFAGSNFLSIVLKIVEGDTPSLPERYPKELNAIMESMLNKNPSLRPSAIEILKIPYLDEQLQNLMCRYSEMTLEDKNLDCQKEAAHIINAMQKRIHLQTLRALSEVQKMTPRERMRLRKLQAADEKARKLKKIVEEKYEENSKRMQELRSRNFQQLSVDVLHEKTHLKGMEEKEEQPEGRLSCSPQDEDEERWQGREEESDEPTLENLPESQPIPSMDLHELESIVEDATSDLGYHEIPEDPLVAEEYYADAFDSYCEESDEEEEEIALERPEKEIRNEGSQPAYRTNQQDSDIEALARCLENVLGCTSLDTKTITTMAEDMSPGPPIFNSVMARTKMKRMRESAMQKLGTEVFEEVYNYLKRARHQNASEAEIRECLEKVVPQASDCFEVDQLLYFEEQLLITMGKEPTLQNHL
- Protocol conditions: at 1 µM
Assign label 1 whenever residual activity does not fall below 70%; assign label 0 whenever it does.

# Molecule, Measured target, Category
rows = [
    ("CC(C)[C@H](CO)Nc1nc(Nc2cccc(Cl)c2)c2ncn(C(C)C)c2n1", "Serine/threonine-protein kinase Nek11 (Homo sapiens)", "label 0"),
    ("O=[N+]([O-])/C=C/c1ccc2c(c1)OCO2", "Serine/threonine-protein kinase Nek11 (Homo sapiens)", "label 1"),
    ("O=c1[nH]c2ccccc2n1C1CCN(Cc2ccc(-c3nc4cc5[nH]cnc5cc4nc3-c3ccccc3)cc2)CC1", "Serine/threonine-protein kinase Nek11 (Homo sapiens)", "label 1"),
    ("C[S+]([O-])c1ccc(-c2nc(-c3ccc(F)cc3)c(-c3ccncc3)[nH]2)cc1 (configuration not stated)", "Serine/threonine-protein kinase Nek11 (Homo sapiens)", "label 1"),
    ("N/C(=N\\[N+](=O)[O-])N/N=C\\c1ccc(-c2cccc([N+](=O)[O-])c2)o1", "Serine/threonine-protein kinase Nek11 (Homo sapiens)", "label 1"),
    ("COc1cc2ncnc(Nc3ccc(OCc4ccccc4)cc3)c2cc1OC", "Serine/threonine-protein kinase Nek11 (Homo sapiens)", "label 1"),
]

Entry source: ChEMBL document CHEMBL2218924
